Source listed as patent US20240270821A1.

Molecular target: hGLP-1R (Homo sapiens, UniProt P43220)
Sequence (P43220 24-463): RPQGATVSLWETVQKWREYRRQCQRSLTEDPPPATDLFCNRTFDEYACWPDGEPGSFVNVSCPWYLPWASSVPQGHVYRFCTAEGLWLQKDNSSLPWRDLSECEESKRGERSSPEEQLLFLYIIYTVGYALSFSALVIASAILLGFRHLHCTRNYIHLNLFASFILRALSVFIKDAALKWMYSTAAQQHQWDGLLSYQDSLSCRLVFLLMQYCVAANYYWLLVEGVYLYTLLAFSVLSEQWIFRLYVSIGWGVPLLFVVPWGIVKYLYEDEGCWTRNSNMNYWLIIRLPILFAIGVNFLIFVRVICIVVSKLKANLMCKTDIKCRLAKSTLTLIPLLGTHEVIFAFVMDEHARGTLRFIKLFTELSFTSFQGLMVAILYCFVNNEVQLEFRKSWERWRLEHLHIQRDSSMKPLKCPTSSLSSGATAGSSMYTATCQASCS
Test: cell-based or functional assay
# log10(Relative cAMP EC50) per record follows
assay_endpoint: log10(Relative cAMP EC50) (log10 of the value in nM)

binder: YXQGTXTSDXXIXLDXXAQXEFIEXLIEGGPSSGAPPPSGGGE (synthetic construct; SITE 2: note = 2-Aminoisobutyric Acid; SITE 6: note = alpha-methyl-2-fluoro-L-phenylalanine; SITE 10: note = 3-(4-Pyridyl)-L-alanine; SITE 11: note = alpha-methyl-L-serine; SITE 13: note = alpha-methyl-leucine; SITE 16: note = L-ornithine; SITE 17: note = Ornithine is chemically) [Example 1213]
log10(Relative cAMP EC50): -0.37
//
binder: YXQGTFTSDXSXXLDKKAQXAFIEXLIEGGPSSGAPPPSGS (synthetic construct; SITE 2: note = 2-Aminoisobutyric Acid; SITE 10: note = 3-(4-Pyridyl)-L-alanine; SITE 12: note = L-ornithine; SITE 13: note = alpha-methyl-leucine; SITE 17: note = Lysine is chemically modified through conjugation of the epsilon-amino group of the Lysine side chain with (2-[2-(2-) [Example 497]
log10(Relative cAMP EC50): 0.03
//
binder: YXQGTXTSDYSKXLDKKAQXQFIEYLEEGGPSSGEPPPSEG (synthetic construct; SITE 2: note = 2-Aminoisobutyric Acid; SITE 6: note = alpha-methyl-2-fluoro-L-phenylalanine; SITE 13: note = alpha-methyl-leucine; SITE 17: note = Lysine is chemically modified through conjugation of the epsilon-amino group of the Lysine side chain with (2-[2-(2-Amino-ethoxy)-et)) [Example 292]
log10(Relative cAMP EC50): 0.01
//
binder: YXQGTXTSDXXIXLDXKAQXEFIEXLIEGGPSSGEPPPSGE (non-natural residues, (γGlu)2-C18 diacid lysine acylation, C-terminal amide; synthetic construct; SITE 2: note = 2-Aminoisobutyric Acid; SITE 6: note = alpha-methyl-L-phenylalanine; SITE 10: note = 3-(4-Pyridyl)-L-alanine; SITE 11: note = alpha-methyl-L-serine; SITE 13: note = alpha-methyl-leucine; SITE 16: note = L-ornithine; SITE 17: note = Lysine is chemically modified th) [Example 1171]
log10(Relative cAMP EC50): -0.28
//
binder: YXQGTFTSDFSXXLDKKAQXAFIEYLLEAGPSSGXPPPSGS (synthetic construct; SITE 2: note = 2-Aminoisobutyric Acid; SITE 12: note = L-ornithine; SITE 13: note = alpha-methyl-leucine; SITE 17: note = Lysine is chemically modified through conjugation of the epsilon-amino group of the Lysine side chain with (2-[2-(2-Amino-ethoxy)-ethoxy]-acetyl)2-(gamma-Glu)) [Example 254]
log10(Relative cAMP EC50): 0.49
//
binder: YXQGTXTSDXSIXLDXKAQXEFIEXLIEGGPSSGAPPPSGS (non-natural residues; Lys acylated C18 diacid; C-terminal amide; synthetic construct; SITE 2: note = 2-Aminoisobutyric Acid; SITE 6: note = alpha-methyl-2-fluoro-L-phenylalanine; SITE 10: note = 3-(4-Pyridyl)-L-alanine; SITE 13: note = alpha-methyl-leucine; SITE 16: note = L-ornithine; SITE 17: note = Lysine is chemically modified through conjugation of the epsil) [Example 640]
log10(Relative cAMP EC50): -0.54
